src = patent US20250243286A1

pKd by entry:
Molecular target: T1, human ActRIIB (human, UniProt Q13705 19-137, limits assumed)
T1 construct: antigen in MSD-SET; also called ACVR2B; ActR2B
T1 sequence: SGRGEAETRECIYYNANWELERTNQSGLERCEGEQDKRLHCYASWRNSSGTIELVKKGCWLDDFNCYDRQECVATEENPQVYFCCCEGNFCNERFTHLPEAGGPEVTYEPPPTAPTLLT
Experiment: MSD-SET
pKd: −log10 of the molar value.
measured parameter: pKd

{"binder": "Schwardamaga Fab (Fab, V domains shown, Fab) VH: QVQLVQSGAEVKKPGSSVKVSCKASGYTFTSSYINWVRQAPGQGLEWMGTINAVSGSTSYAQKFQGRVTITADTSTSTAYMELSSLRSEDTAVYYCARGGWFDYWGQGTLVTVSS VL: QSALTQPRSVSGSPGQSVTISCTGTSSDVGSANYVNWYQQHPGKAPKPMIYGVSRRPSGVPDRFSGSKSGNTASLTISGLQAEDEADYYCGTFAGGKYYGVFGGGTKLTVL", "test result": 10.86}
{"binder": "Antibody Bäradreck (antibody, V domains shown, full-length IgG) VH: QVQLVQSGAEVKKPGSSVKVSCKASGYTFTSSYINWVRQAPGQGLEWMGTINPVSGSTSYAQKFQGRVTITADTSTSTAYMELSSLRSEDTAVYYCARGGWFDYWGQGTLVTVSS VL: QSALTQPRSVSGSPGQSVTISCTGTSSDVGSYNYVNWYQQHPGKAPKLMIYGVSKRPSGVPDRFSGSKSGNTASLTISGLQAEDEADYYCGTFAGGSYYGVFGGGTKLTVL", "test result": 10.20}
{"binder": "Antibody Soidawürstle (antibody, V domains shown, full-length IgG; also called Soidawüsrstel) VH: QVQLVQSGAEVRKPGSSVKVSCKASGYTFTSSYINWVRQAPGQGLEWMGTINPVSGSTSYAQKFQGRVTITADTSTSTAYMELSSLRSEDTAVYYCARGGWFDYWGQGTLVTVSS VL: QSALTQPRSVSGSPGQSVTISCTGTSSDVGSYNRVNWYQQHPGKAPKLMIYGVSKRESGVPDRFSGSKSGNTASLTISGLQAEDEADYYCGTFAGGRYYGVFGGGTKLTVL", "test result": 11.26}
